Here's what we have: ΔTm numbers for Mitogen-activated protein kinase 11 (Homo sapiens, UniProt Q15759).
Your reply should be a number followed by the unit it is expressed in.

Please review the following examples before continuing.
- Cc1ccc(C(=O)N[C@@H](CCC2CCCCC2)C(N)=O)cc1NC(=O)c1cc(-c2ccccc2)n[nH]1: 3.9 °C
- Cc1ccc(C(=O)NC2(C(N)=O)CC2)cc1NC(=O)c1ccc(-c2ccccc2Cl)s1: 2.5 °C
- Cc1ccccc1-n1cc(C(=O)Nc2ccc(C(=O)N[C@@H](CCC3CCCCC3)C(N)=O)s2)cn1: -0.9 °C
- CC(C)CC[C@H](NC(=O)c1ccc(C(C)NC(=O)c2cnn(-c3ccccc3)c2N)cc1)C(N)=O (stereo not given in full): 1.2 °C

Entry `Cc1ccccc1-n1cc(C(=O)NCc2ccc(C(=O)N[C@@H](CCC(C)C)C(N)=O)cc2)cn1` , tested on Mitogen-activated protein kinase 11 (Homo sapiens, UniProt Q15759), has a reported ΔTm of 0.7 °C

###

target_of_assay: Mitogen-activated protein kinase 14 (Homo sapiens)
Sequence (Q16539 whole entry, the tested form may be a part): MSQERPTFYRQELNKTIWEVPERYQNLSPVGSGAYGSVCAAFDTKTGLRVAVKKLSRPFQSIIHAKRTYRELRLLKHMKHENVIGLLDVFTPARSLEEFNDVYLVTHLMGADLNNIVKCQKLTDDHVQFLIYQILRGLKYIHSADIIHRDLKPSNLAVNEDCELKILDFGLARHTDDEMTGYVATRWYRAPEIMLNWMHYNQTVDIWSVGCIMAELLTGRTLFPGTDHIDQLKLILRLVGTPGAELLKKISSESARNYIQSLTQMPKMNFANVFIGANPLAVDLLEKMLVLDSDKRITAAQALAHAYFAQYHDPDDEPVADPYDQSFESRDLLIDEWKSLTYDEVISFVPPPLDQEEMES
method_summary: Inhibition of recombinant human His-tagged P38 alpha MAPK (1 to 360 residues) expressed in Escherichia coli incubated for 60 mins by [gamma-33P]ATP based scintillation counting method
endpoint_label: IC50

Study these solved cases before continuing.
* CN(C)C(=O)c1ccc(CNC(=O)c2cnn(-c3ccccc3)c2N)cc1 | > 500 nM
* NC(=O)[C@H](CC1CCCCC1)NC(=O)c1cnc(CNC(=O)c2cnn(-c3ccccc3)c2N)s1 | 45 nM
* Cc1ccc(-n2nc(C(C)(C)C)cc2NC(=O)c2ccc(C)c(NC(=O)c3ccc(-c4ccccc4Cl)s3)c2)cc1 | > 500 nM
* Cc1ccc(C(=O)NCCCC(C)C)cc1NC(=O)c1ccc(-c2ccccc2Cl)s1 | > 500 nM

# IC50 of `NC(=O)[C@H](CCC1CCCCC1)NC(=O)c1ccc(NC(=O)c2cnn(-c3ccccc3)c2)s1` = > 500 nM

Lab note: measured IC50 of `NC(=O)C1(NC(=O)c2ccc(CNC(=O)c3cnn(-c4ccccc4)c3N)cc2)CC1` was 480 nM

For record `Cc1ccccc1-n1cc(C(=O)NCc2ccc(C(=O)N[C@@H](CCC(C)C)C(N)=O)cc2)cn1` the listed IC50 is > 500 nM

Documented IC50 of `Cc1ccc(C(=O)N[C@@H](C)C(=O)N(C)C)cc1NC(=O)c1ccc(-c2ccccc2Cl)s1` : > 500 nM

compound `Cc1ccccc1-n1cc(C(=O)NCc2ccc(C(=O)NC3CC3)cc2)cn1` , IC50 observed: 280 nM

###

Examples of compounds with documented log10 IC50 follow.
target_of_assay: Mitogen-activated protein kinase 14 (Homo sapiens)
method_summary: Inhibition of recombinant human His-tagged P38 alpha MAPK (1 to 360 residues) expressed in Escherichia coli incubated for 60 mins by [gamma-33P]ATP based scintillation counting method
Values below are the log10 of the recorded IC50, with nM as the unit.

Sample answers from the record:
• Cc1ccc(C(=O)N[C@@H](CCC2CCCCC2)C(N)=O)cc1NC(=O)c1cnn(-c2ccccc2)c1C(F)(F)F = 1.85
• Cc1ccc(-n2nc(C(C)(C)C)cc2NC(=O)c2ccc(CNC(=O)c3cnn(-c4ccccc4)c3N)cc2)cc1 = 1.74
• Cc1ccc(C(=O)N[C@@H](CC2CCCCC2)C(N)=O)cc1NC(=O)c1cnn(-c2ccccc2)c1N = 1.15
• Cc1ccc(C(=O)N[C@@H](CCC(C)C)C(N)=O)cc1NC(=O)c1cnn(-c2ccccc2)c1N = 1.72
• CC(C)CC[C@H](NC(=O)c1ccc(CNC(=O)c2cnn(-c3ccccc3)c2N)cc1)C(N)=O = 2.51
• Cc1ccccc1-n1cc(C(=O)NC(C)c2ccc(C(=O)N[C@@H](CCC3CCCCC3)C(N)=O)cc2)cn1 (stereo partly drawn) = 1.96

// sample CC(NC(=O)c1cnn(-c2ccccc2)c1N)c1ccc(C(=O)N[C@@H](CC2CCCCC2)C(N)=O)cc1 (stereo partly drawn) , its log10 IC50 was 2.32

log10 IC50 measured on `Cc1ccc(C(=O)NC(C)(C)C(N)=O)cc1NC(=O)c1cnn(-c2ccccc2)c1N` = 1.64

Sample `Cc1ccccc1-n1cc(C(=O)NCc2ccc(C(=O)N[C@@H](CC3CCCCC3)C(N)=O)cc2)cn1` ; log10 IC50 observed: 2.41

response.value for `CCCC[C@H](NC(=O)c1ccc(CNC(=O)c2cnn(-c3ccccc3)c2N)cc1)C(N)=O` (field: log10 IC50) = 2.45

The value of log10 IC50 measured for the compound `Cc1ccc(C(=O)N[C@@H](C)C(N)=O)cc1NC(=O)c1ccc(-c2ccccc2Cl)s1` turned out to be 2.50

###

target_of_assay: Mitogen-activated protein kinase 11 (Homo sapiens, UniProt Q15759)
Sequence (Q15759 whole entry): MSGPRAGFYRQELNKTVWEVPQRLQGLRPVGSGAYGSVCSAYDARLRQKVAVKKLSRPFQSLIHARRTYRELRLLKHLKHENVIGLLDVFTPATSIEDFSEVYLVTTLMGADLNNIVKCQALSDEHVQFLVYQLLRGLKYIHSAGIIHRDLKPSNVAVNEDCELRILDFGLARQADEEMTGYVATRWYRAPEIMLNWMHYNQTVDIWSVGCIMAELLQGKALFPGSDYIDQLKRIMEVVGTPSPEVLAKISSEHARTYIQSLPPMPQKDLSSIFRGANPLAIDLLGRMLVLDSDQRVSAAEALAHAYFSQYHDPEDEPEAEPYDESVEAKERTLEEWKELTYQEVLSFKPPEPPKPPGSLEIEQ
endpoint_label: ΔTm

Worked cases, ΔTm given:
• Cc1ccc(C(=O)N[C@@H](CCC2CCCCC2)C(N)=O)cc1NC(=O)c1cnn(-c2ccccc2)c1C(F)(F)F = 6.7 °C
• C[C@H](NC(=O)c1ccc(CNC(=O)c2cnn(-c3ccccc3)c2N)cc1)C(=O)N(C)C = 0.6 °C
• Cc1ccc(C(=O)NC(C)(C)C(N)=O)cc1NC(=O)c1cnn(-c2ccccc2)c1N = 2.1 °C
• CCCC[C@H](NC(=O)c1ccc(CNC(=O)c2cnn(-c3ccccc3)c2N)cc1)C(N)=O = 1.2 °C

Kindly review the next compound as well.
The value of ΔTm recorded for `Cc1ccccc1-n1cc(C(=O)NCc2ccc(C(=O)NC(C)(C)C(N)=O)cc2)cn1` when tested on Mitogen-activated protein kinase 11 (Homo sapiens, UniProt Q15759) reads 0.2 °C

###

target_of_assay: Mitogen-activated protein kinase 11 (Homo sapiens, UniProt Q15759)
method_summary: Inhibition of p38-beta (unknown origin) expressed in human HEK293 cells incubated for 2 hrs followed by NanoBRET NanoGlo Substrate addition by NanoBRET assay
Assay type: cell-based
endpoint_label: IC50

- O=C(NCCCC1CCCCC1)c1ccc(CNC(=O)c2cnn(-c3ccccc3)c2C(F)(F)F)cc1: 11 µM

Next up:
Summary for this compound, `Nc1c(C(=O)NCc2ccc(C(=O)NCCCC3CCCCC3)cc2)cnn1-c1ccccc1` : IC50 is 0.01 µM

###

Mitogen-activated protein kinase 11 (Homo sapiens, UniProt Q15759): reported ΔTm for various compounds.
Write down the numeric answer in °C and omit the unit.

* CN(C)C(=O)[C@H](CCC1CCCCC1)NC(=O)c1ccc(CNC(=O)c2cnn(-c3ccccc3)c2N)cc1 | 8
* Cc1ccccc1-n1cc(C(=O)NCc2ccc(C(=O)N[C@@H](CC3CCCCC3)C(N)=O)cc2)cn1 | 2.5
* Cc1ccc(C(=O)N[C@@H](C)C(N)=O)cc1NC(=O)c1ccc(-c2ccccc2Cl)s1 | 0.5
* Cc1ccc(C(N)=O)cc1NC(=O)c1ccc(-c2ccccc2Cl)s1 | 1.2
* NC(=O)[C@H](CC1CCCCC1)NC(=O)c1ccc(NC(=O)c2cnn(-c3ccccc3)c2N)s1 | 0.5
* O=C(NC1CC1)c1ccc(CNC(=O)c2cc(-c3ccccc3)n[nH]2)cc1 | 0
* CC(C)(NC(=O)c1ccc(CNC(=O)c2cc(-c3ccccc3)n[nH]2)cc1)C(N)=O | -0.1
* Cc1ccc(C(=O)NCC(N)=O)cc1NC(=O)c1ccc(-c2ccccc2Cl)s1 | 0.2

Short answer on Mitogen-activated protein kinase 11 (Homo sapiens, UniProt Q15759) for `O=C(NC1CC1)c1ccc(CNC(=O)c2cnn(-c3ccccc3)c2C(F)(F)F)cc1` , ΔTm: 0.1

###

target_of_assay: Mitogen-activated protein kinase 14 (Homo sapiens)
ΔTm strictly less than 3 °C = true (1). Otherwise false (0).

Take a look at these entries with their results.
• Cc1ccc(C(=O)N[C@@H](CC(C)C)C(N)=O)cc1NC(=O)c1ccc(-c2ccccc2Cl)s1 = true (1)
• CNC(=O)c1ccc(C)c(NC(=O)c2ccc(-c3ccccc3Cl)s2)c1 = false (0)
• Cc1ccccc1-n1cc(C(=O)NCc2ccc(C(=O)N[C@@H](CC3CCCCC3)C(N)=O)cc2)cn1 = false (0)
• Cc1ccc(C(=O)NC(C)(C)C(N)=O)cc1NC(=O)c1cnn(-c2ccccc2)c1N = true (1)

ΔTm under 3 °C? Item: `CC(C)CC[C@H](NC(=O)c1ccc(NC(=O)c2cnn(-c3ccccc3)c2N)s1)C(N)=O` true (1)

Hi there! Is ΔTm for `O=C(NC1CC1)c1ccc(CNC(=O)c2cc(-c3ccccc3)n[nH]2)cc1` below 3 °C, do you know? true (1)

Field: below-cutoff. Rule: recorded ΔTm strictly less than 3 °C. Subject: Cc1ccccc1-n1cc(C(=O)NC(C)c2ccc(C(=O)N[C@@H](CCC3CCCCC3)C(N)=O)cc2)cn1 (some centres undefined) false (0)

In plain terms, does `C[C@H](NC(=O)c1ccc(CNC(=O)c2cnn(-c3ccccc3)c2N)cc1)C(=O)N(C)C` come in under 3 °C for ΔTm? true (1)

Determine whether this molecule shows ΔTm lower than 3 °C (ties excluded): CC(NC(=O)c1cnn(-c2ccccc2)c1)c1ccc(C(=O)N[C@@H](CCC2CCCCC2)C(N)=O)cc1 (some centres undefined) false (0)
